property-measured: pKi
Here pKi is given on a logarithmic scale as minus log10 of the concentration in mol/L.

Asked: Checklist item: pKi tested on Chymotrypsinogen A (Bos taurus, UniProt P00766), entry CC(=O)NC(C#N)Cc1ccccc1 (stereo unspecified) , value?
Given back: 2.28

---

Test: Compound was tested for Inhibition of Leucine aminopeptidase-M
Kindly supply the reported Ki values for the records listed here.
Response body: numeric value in mM, unit text excluded.

Asked: Requested read-out: Ki. Entry: N#CC(N)Cc1ccccc1 (centres undefined)
Given back: 67

Asked: Requested read-out: Ki. Entry: NC(=O)C(N)Cc1ccccc1 (centres undefined)
Given back: 14.8

Asked: Requested read-out: Ki. Entry: CS(=O)(=O)/C=C/C(N)Cc1ccccc1 (centres undefined)
Given back: 3.7

Asked: Requested read-out: Ki. Entry: COC(=O)/C=C/C(N)Cc1ccccc1 (centres undefined)
Given back: 61

---

Kindly supply the reported Ki values for the records listed here.
Target: Dipeptidyl peptidase 1 (Homo sapiens)
Sequence (P53634 25-134 limits assumed): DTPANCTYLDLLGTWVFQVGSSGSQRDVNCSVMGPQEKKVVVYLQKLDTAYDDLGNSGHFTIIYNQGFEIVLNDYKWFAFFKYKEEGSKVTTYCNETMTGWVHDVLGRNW
Sequence (P53634 231-394 limits assumed): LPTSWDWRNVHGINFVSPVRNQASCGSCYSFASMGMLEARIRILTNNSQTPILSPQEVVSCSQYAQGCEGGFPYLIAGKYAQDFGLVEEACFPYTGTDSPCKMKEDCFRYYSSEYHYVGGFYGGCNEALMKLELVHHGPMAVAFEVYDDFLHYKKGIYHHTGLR
Sequence (P53634 395-463 limits assumed): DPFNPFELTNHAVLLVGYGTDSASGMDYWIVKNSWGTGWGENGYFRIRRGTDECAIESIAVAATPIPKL
Test: Compound was tested for Inhibition of Dipeptidyl aminopeptidase 1
Response body: numeric value in µM, unit text excluded.

Asked: Requested read-out: Ki. Entry: N#CC(Cc1ccccc1)NC(=O)CN (stereo not drawn)
Given back: 2.7

Asked: Requested read-out: Ki. Entry: COC(=O)/C=C/C(Cc1ccccc1)NC(=O)CN (stereo not drawn)
Given back: 220

Asked: Requested read-out: Ki. Entry: CS(=O)(=O)/C=C/C(Cc1ccccc1)NC(=O)CN (stereo not drawn)
Given back: 180

---

Kindly supply the reported pKi values for the records listed here.
Test: Compound was tested for Inhibition of leucine aminopeptidase-C
Here pKi is given on a logarithmic scale as minus log10 of the concentration in mol/L.

Asked: Requested read-out: pKi. Entry: CS(=O)(=O)/C=C/C(N)Cc1ccccc1 (centres undefined)
Given back: 2.06

Asked: Requested read-out: pKi. Entry: NC(=O)C(N)Cc1ccccc1 (centres undefined)
Given back: 1.85

Asked: Requested read-out: pKi. Entry: COC(=O)/C=C/C(N)Cc1ccccc1 (centres undefined)
Given back: 1.63

Asked: Requested read-out: pKi. Entry: N#CC(N)Cc1ccccc1 (centres undefined)
Given back: 1.58

---

Ki, Papain (Carica papaya, UniProt P00784): measured values
Where a SMILES comes first, the peptide text is derived from it.
Response body: numeric value in mM, unit text excluded.

Asked: Requested read-out: Ki. Entry: CC(=O)NC(Cc1ccccc1)C(=O)NCC(=N)S (centres undefined)
Given back: 0.095

Asked: Requested read-out: Ki. Entry: CC(=O)N[C@@H](Cc1ccccc1)C(=O)NCC(N)=O (Ac-Phe-Gly-NH2)
Given back: 4.7

Asked: Requested read-out: Ki. Entry: C=CCNC(=O)C(Cc1ccccc1)NC(C)=O (centres undefined)
Given back: 9.2

Asked: Requested read-out: Ki. Entry: CC(=O)NC(Cc1ccccc1)C(=O)NCC#N (centres undefined)
Given back: 0.0011

Reference source for all entries: ChEMBL document CHEMBL1123492
